- TEST SYSTEM: ligand binding domain of human RORγ (A262-S507) (Homo sapiens, UniProt P51449)
- Construct: made in house; host or cells: E. coli
- Sequence (P51449 262-507): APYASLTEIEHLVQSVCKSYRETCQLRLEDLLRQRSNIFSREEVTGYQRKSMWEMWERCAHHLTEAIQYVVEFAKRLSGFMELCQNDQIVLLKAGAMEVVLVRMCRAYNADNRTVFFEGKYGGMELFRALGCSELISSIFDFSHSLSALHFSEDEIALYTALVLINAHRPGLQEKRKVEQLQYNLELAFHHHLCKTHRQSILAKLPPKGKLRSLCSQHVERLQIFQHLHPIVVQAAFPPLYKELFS
- PROTOCOL SUMMARY: General RORγ SPA binding assay (competition with [3H]25-hydroxycholesterol)
- MEASUREMENT CONTEXT: RORγ SPA binding assay, inhibition of [3H]25-hydroxycholesterol binding; read-out: IC50
MEASURED PROPERTY: IC50 (µM)

// known answers, use as guide
[
  {
    "COMPOUND": "Cc1nc(NCc2ccnc(C(F)(F)F)c2)c(C(=O)NCc2ccnc(C(F)(F)F)c2)c(C2CCN(C(=O)Cc3c(F)cccc3F)CC2)n1",
    "OBSERVED RESULT": 0.071
  },
  {
    "COMPOUND": "Cc1cc(C)cc(CNC(=O)c2cnc(C)nc2C2CCN(C(=O)Oc3c(F)cccc3F)CC2)c1",
    "OBSERVED RESULT": 0.006
  },
  {
    "COMPOUND": "Cc1cc(C)cc(CNC(=O)c2cnc(C)nc2C2CCN(C(=O)c3ncccc3Cl)CC2)c1",
    "OBSERVED RESULT": 1.95
  },
  {
    "COMPOUND": "Cc1cc(C)cc(CNC(=O)c2cnc(C)nc2C2CCN(C(=O)Oc3ccccc3Cl)CC2)c1",
    "OBSERVED RESULT": 0.0062
  },
  {
    "COMPOUND": "C/C(=N\\Oc1cccc(C)c1C)c1cnc(C)nc1C1CCN(C(=O)Cc2c(F)cccc2F)CC1",
    "OBSERVED RESULT": 0.084
  }
]

a. Cc1ncc(C(=O)NCc2ccc(Cl)c(Cl)c2)c(C2CCN(C(=O)Cc3c(F)ccc(F)c3F)CC2)n1
b. Cc1cc(C)cc(CNC(=O)c2cnc(C)nc2C2CCN(C(=O)Cc3cccc(F)c3F)CC2)c1
Exam item: Of a and b , which carries the smaller reported IC50 figure? Mark your answer with the label of the selected entry.
Marked response: a

---

- TEST SYSTEM: ligand binding domain of human RORγ (A262-S507) (Homo sapiens)
- Construct: made in house; host or cells: E. coli
- PROTOCOL SUMMARY: General RORγ SPA binding assay (competition with [3H]25-hydroxycholesterol)
- MEASUREMENT CONTEXT: RORγ SPA binding assay, inhibition of [3H]25-hydroxycholesterol binding; read-out: IC50
MEASURED PROPERTY: IC50 (nM)

// known answers, use as guide
[
  {
    "COMPOUND": "Cc1ncc(C(=O)NCc2cc(Cl)nc(Cl)c2)c(C2CCN(C(=O)Cc3c(F)cccc3F)CC2)n1",
    "UNIT SYMBOL": "nM",
    "OBSERVED RESULT": 6.8
  },
  {
    "COMPOUND": "Cc1ncc(C(=O)NOc2cccc(Cl)c2)c(C2CCN(C(=O)Cc3c(F)cccc3F)CC2)n1",
    "UNIT SYMBOL": "nM",
    "OBSERVED RESULT": 84
  },
  {
    "COMPOUND": "Cc1nc(N)nc(C2CCN(C(=O)Nc3c(F)cccc3F)CC2)c1-c1nnc(-c2ccnc(C(F)(F)F)n2)o1",
    "UNIT SYMBOL": "nM",
    "OBSERVED RESULT": 63.9
  },
  {
    "COMPOUND": "Cc1nc(C)c(-c2nnc(-c3ccnc(C(F)(F)F)n3)o2)c(C2CCN(S(=O)(=O)c3c(F)cccc3F)CC2)n1",
    "UNIT SYMBOL": "nM",
    "OBSERVED RESULT": 844
  },
  {
    "COMPOUND": "Cc1ncc(/C(=N/Oc2ccnc(C(F)(F)F)c2)C(F)F)c(C2CCN(C(=O)Cc3c(F)cccc3F)CC2)n1",
    "UNIT SYMBOL": "nM",
    "OBSERVED RESULT": 15.3
  }
]

1. CC(=O)Nc1ncc(C(C)(O)COc2ccnc(C(F)(F)F)n2)c(C2CCN(C(=O)Cc3c(F)cccc3F)CC2)n1 (stereo not shown)
2. CNc1nc(C)nc(C2CCN(C(=O)Cc3c(F)cccc3F)CC2)c1C(=O)NCc1cc(C)cc(C)c1
Exam item: Among 1 and 2 , which shows a numerically higher IC50 result? Mark your answer with the label of the selected entry.
Marked response: 2

The measured values listed here are drawn from patent US10035790B2.
